ASSAYED_SYSTEM: T1, full-length cynomolgus GLP1R on HEK293/CRE-Luc/mfGLP1R cells (cynomolgus, UniProt F8V479 24-463)
T1 construct: whole, on cells
EXPERIMENTAL_PROTOCOL: flow cytometry, mfGLP1R cells
RECORDED_ENDPOINT: Flow S/N (fold)
Number only, in fold; omit the unit.

Look over these answered cases.
[
  {
    "BINDER": "REGN9278 (antibody, human IgG4 S228P, kappa, V domains shown, IgG4; Q-tag on light chain N-terminus; also called mAb 19; REGN9278 unconjugated Ab) VH: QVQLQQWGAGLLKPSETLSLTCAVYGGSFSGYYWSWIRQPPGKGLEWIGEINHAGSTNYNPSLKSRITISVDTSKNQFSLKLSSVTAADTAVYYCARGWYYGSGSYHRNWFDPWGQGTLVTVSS VL: EIVLTQSPGTLSLSPGERATLSCRASQSVYYSYLAWYQQKPGQAPRLLIYGASNRATGIPDRFSGSGSGTDFTLTISRLEPEDFAVYYCQQYGNSPWTFGQGTKVEIKR",
    "RECORDED_ENDPOINT": "Flow S/N",
    "MEASURED_VALUE": 548
  },
  {
    "BINDER": "REGN8070 (antibody, human IgG4 S228P, kappa, V domains shown, IgG4; Q-tag on light chain N-terminus; also called mAb 16; REGN8070 unconjugated Ab) VH: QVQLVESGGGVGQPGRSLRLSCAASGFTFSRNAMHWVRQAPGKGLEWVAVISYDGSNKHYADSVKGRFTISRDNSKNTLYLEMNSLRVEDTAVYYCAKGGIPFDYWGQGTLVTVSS VL: DIVMTQSPLSSPVTLGQPASISCRSSQSLVHFDGNTYLSWLHQRPGQPPRLLIYKISNRFSGVPDRFSGSGAGTDFTLKISRVEPEDVGVYYCMHATQFPYTFGQGTKLEIKR",
    "RECORDED_ENDPOINT": "Flow S/N",
    "MEASURED_VALUE": 246
  },
  {
    "BINDER": "REGN8072-M3190 (antibody, human IgG4 S228P, kappa, V domains shown, linker-payload M3190 (LP11) on Gln 3 of the N-terminal Q-tag LLQGSG, antibody-tethered drug conjugate; also called REGN8072 ATDC; anti-GLP1R mAb4-LP11) VH: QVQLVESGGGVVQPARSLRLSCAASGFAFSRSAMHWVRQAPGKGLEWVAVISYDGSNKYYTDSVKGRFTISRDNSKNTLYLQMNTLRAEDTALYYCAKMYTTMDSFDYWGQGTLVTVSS VL: DIQLTQSPSFLSASVGDRVTITCWASQGISSYLAWYQQKPGKAPKLLIYAASTLQSGVPSRFSGSGSGTEFTLTISSLQPEDFALYYCQQLNSYPRTFGQGTKVEIKR",
    "RECORDED_ENDPOINT": "Flow S/N",
    "MEASURED_VALUE": 148
  },
  {
    "BINDER": "REGN8051 (antibody, V domains shown, parental antibody without Q-tag; also called parent of REGN8070) VH: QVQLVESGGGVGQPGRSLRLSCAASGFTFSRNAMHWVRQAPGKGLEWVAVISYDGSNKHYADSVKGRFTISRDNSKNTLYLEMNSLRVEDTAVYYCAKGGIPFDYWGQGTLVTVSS VL: DIVMTQSPLSSPVTLGQPASISCRSSQSLVHFDGNTYLSWLHQRPGQPPRLLIYKISNRFSGVPDRFSGSGAGTDFTLKISRVEPEDVGVYYCMHATQFPYTFGQGTKLEIK",
    "RECORDED_ENDPOINT": "Flow S/N",
    "MEASURED_VALUE": 494
  },
  {
    "BINDER": "REGN8070-M3190 (antibody, human IgG4 S228P, kappa, V domains shown, linker-payload M3190 (LP11) on Gln 3 of the N-terminal Q-tag LLQGSG, antibody-tethered drug conjugate; also called REGN8070 ATDC) VH: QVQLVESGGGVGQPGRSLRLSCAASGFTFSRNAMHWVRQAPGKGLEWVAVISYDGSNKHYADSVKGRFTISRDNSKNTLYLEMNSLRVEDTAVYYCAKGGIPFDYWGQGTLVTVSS VL: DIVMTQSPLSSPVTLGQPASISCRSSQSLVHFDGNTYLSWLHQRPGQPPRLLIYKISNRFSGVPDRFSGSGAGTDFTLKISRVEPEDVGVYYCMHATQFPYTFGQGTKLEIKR",
    "RECORDED_ENDPOINT": "Flow S/N",
    "MEASURED_VALUE": 155
  }
]

// switching to the query binder
Inquiry: Fill in the blank: the reported Flow S/N of H2aM30341N (antibody, V domains shown, parent of H4H30341N (REGN9278 without Q-tag); also called parent of REGN9278) VH: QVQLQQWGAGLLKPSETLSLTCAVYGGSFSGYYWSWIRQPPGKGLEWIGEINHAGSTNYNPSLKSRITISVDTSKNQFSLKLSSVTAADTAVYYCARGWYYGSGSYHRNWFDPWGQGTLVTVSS VL: EIVLTQSPGTLSLSPGERATLSCRASQSVYYSYLAWYQQKPGQAPRLLIYGASNRATGIPDRFSGSGSGTDFTLTISRLEPEDFAVYYCQQYGNSPWTFGQGTKVEIK is ____.
Reply text: 646
